# SYSTEM_NAME: HCV NS3 protease, genotype 1a (Hepatitis C virus genotype 1a)
# Construct: NS3 protease catalytic domain (amino acids 1 to 192); MGAQH expression leader (5 aa), or alternatively the 15 aa His tag […]; made in house; host or cells: E. coli BL21 (DE3)
# MEASUREMENT_NOTES: biochemical
# Assay type: biochemical
# EXPERIMENTAL_CONTEXT: substrate A
Where a SMILES comes first, the peptide text is derived from it. [ ]: non-standard residue; d: D form. Dip = N[C@H](C(=O)O)C(c1ccccc1)c1ccccc1; Cha = N[C@@H](CC1CCCCC1)C(=O)O
MEASURED_ENDPOINT: (S = P6-P3′) Inhibition(+) / Activation (−)

CC(=O)N[C@@H](CC(=O)O)C(=O)N[C@@H](CCC(=O)O)C(=O)N[C@H](C(=O)N[C@@H](CCC(=O)O)C(N)=O)C(c1ccccc1)c1ccccc1 [Q229, Ac-Asp-Glu-Dpa-Glu-NH2] (Ac-DE[Dip]E-NH2) | +
CC(=O)N[C@@H](CC(=O)O)C(=O)N[C@@H](CCC(=O)O)C(=O)N[C@H](C(=O)N[C@@H](CCC(=O)O)C(=O)N[C@@H](CC1CCCCC1)C(=O)N[C@@H](CS)C(=O)O)C(c1ccccc1)c1ccccc1 [Q9692, Ac-Asp-Glu-Dpa-Glu-Cha-Cys—OH] (Ac-DE[Dip]E[Cha]C-OH) | −
CC(=O)N[C@@H](CCC(=O)O)C(=O)N[C@@H](CC1CCCCC1)C(=O)N[C@@H](CS)C(=O)O [Q295, Ac-Glu-Cha-Cys-OH] (Ac-Glu-[Cha]-Cys-OH) | +
CC(=O)N[C@@H](CCC(=O)O)C(=O)N[C@H](C(=O)N[C@@H](CCC(=O)O)C(=O)N[C@@H](CC1CCCCC1)C(=O)N[C@@H](CS)C(=O)O)C(c1ccccc1)c1ccccc1 [Q297, Ac-Glu-Dpa-Glu-Cha-Cys-OH] (Ac-E[Dip]E[Cha]C-OH) | −
CC(=O)N[C@H](C(=O)N[C@@H](CCC(=O)O)C(=O)N[C@@H](CC1CCCCC1)C(=O)N[C@@H](CS)C(=O)O)C(c1ccccc1)c1ccccc1 [Q296, Ac-Dpa-Glu-Cha-Cys-OH] (Ac-[Dip]E[Cha]C-OH) | −

* * *

Quick record: pKd, HCV NS3 protease, genotype 1a (Hepatitis C virus genotype 1a, UniProt P26664).
pKd: −log10 of the molar value. Where a SMILES comes first, the peptide text is derived from it. [ ]: non-standard residue; d: D form. Dip = N[C@H](C(=O)O)C(c1ccccc1)c1ccccc1; Cha = N[C@@H](CC1CCCCC1)C(=O)O
MEASURED_ENDPOINT: pKd

CC(=O)N[C@H](C(=O)N[C@@H](CCC(=O)O)C(=O)N[C@@H](CC1CCCCC1)C(N)=O)C(c1ccccc1)c1ccccc1 [Q236, Ac-Dpa-Glu-Cha-NH2] (Ac-[Dip]-Glu-[Cha]-NH2) | 4.18
CC(=O)N[C@@H](CCC(=O)O)C(=O)N[C@H](C(=O)N[C@@H](CCC(=O)O)C(=O)N[C@@H](CC1CCCCC1)C(N)=O)C(c1ccccc1)c1ccccc1 [Q240, Ac-Glu-Dpa-Glu-Cha-NH2] (Ac-E[Dip]E[Cha]-NH2) | 4.10
CC(=O)N[C@@H](CC(=O)O)C(=O)N[C@@H](CCC(=O)O)C(=O)N[C@H](C(=O)N[C@@H](CCC(=O)O)C(=O)N[C@@H](CC1CCCCC1)C(N)=O)C(c1ccccc1)c1ccccc1 [Q228, Ac-Asp-Glu-Dpa-Glu-Cha-NH2] (Ac-DE[Dip]E[Cha]-NH2) | 4.60
CC(=O)N[C@@H](CCC(=O)O)C(=O)N[C@@H](CC1CCCCC1)C(=O)N[C@@H](CS)C(=O)O [Q295, Ac-Glu-Cha-Cys-OH] (Ac-Glu-[Cha]-Cys-OH) | 3.52
